# Olfactory receptor (Rattus norvegicus, UniProt D3Z9H0): IC50 values follow
# Sequence (D3Z9H0 whole entry): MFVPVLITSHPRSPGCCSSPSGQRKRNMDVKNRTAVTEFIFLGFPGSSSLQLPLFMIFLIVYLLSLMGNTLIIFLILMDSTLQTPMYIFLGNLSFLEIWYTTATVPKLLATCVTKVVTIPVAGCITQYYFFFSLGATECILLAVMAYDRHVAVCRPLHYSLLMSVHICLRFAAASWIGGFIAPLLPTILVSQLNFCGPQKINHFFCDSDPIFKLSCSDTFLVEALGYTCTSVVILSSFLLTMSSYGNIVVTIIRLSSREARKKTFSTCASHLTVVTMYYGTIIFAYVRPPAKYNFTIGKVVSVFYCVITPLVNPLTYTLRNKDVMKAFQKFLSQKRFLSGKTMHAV

COMPOUND_SMILES	UNIT_TEXT	IC50
O=CCC1CCCCC1	µM	37
CCCCC=O	µM	460
O=CCCC1CCCC1	µM	60

Cited source: BindingDB's records for doi:10.1016/j.chembiol.2008.10.014
